# Tested on: NL4-3 strain
# assay_text: HIV-1 NL4-3 infection of HeLa-CD4-LTR-LacZ reporter cells, LacZ measured 72 h later
# Assay type: cell-based
# condition_notes: Human immunodeficiency virus 1, NL43; span of Table 2 and earlier value; read-out: dCA inhibitory activity in cell-based assays
observed_property: IC50

// field: IC50; key: CN(C)C1CC23CCC4(O2)C(=CCC2(C)C(c5ccc6ccncc6c5)=CCC24)C=C3C(O)C1O (stereo not shown) [dCA, didehydro-cortistatin A] ; value = 0.6 to 2 nM

---

# assayed_target: HIV Tat HXB3 (Human immunodeficiency virus type 1 group M subtype B, UniProt P69697)
# Sequence (P69697 whole entry): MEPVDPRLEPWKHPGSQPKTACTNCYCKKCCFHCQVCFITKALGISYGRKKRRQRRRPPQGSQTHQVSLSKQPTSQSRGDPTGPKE
observed_property: pKd
// scale note: pKd = -log10(conc_M); give the bare number

Tested on HIV Tat HXB3 (Human immunodeficiency virus type 1 group M subtype B, UniProt P69697), the item CN(C)C1CC23CCC4(O2)C(=CCC2(C)C(c5ccc6ccncc6c5)=CCC24)C=C3C(O)C1O (stereo not shown) [dCA, didehydro-cortistatin A] showed pKd equal to 7.00
